molecular target: T1, Anti-HRP antibody(r); test: fluorescence in solution against HRP concentration (0.3 to 100 µM); peptide on immobilised rabbit anti-HRP antibody
T1 construct: Rabbit IgG, immobilised on a microplate; also called rabbit anti-HRP antibodies; anti-HRP antibody from a rabbit
Ends that are not written are not given here. FAM = carboxyfluorescein (FAM) fluorescent label
readout-kind: pKd
Just so you know, pKd here is -log10 of the concentration in molar units; reply with that number alone.

Below are worked cases with known answers.
# binder, pKd
rows = [
    ("{FAM}-VYYCFQGSHVPFTK (Synthetic 14-mer homologous to the FR3 or FR4 region of the light chain; also called L2 switching peptide; second peptide compound L2) [L2 peptide]", 5.83),
    ("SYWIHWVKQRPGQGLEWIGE (not fully specified (N-terminus), Synthetic 20-mer homologous to the FR2 region of the heavy chain; The fluorescent label differs between experiments; also called H1 switching peptide; third peptide compound H1) [H1 peptide]", 5.78),
    ("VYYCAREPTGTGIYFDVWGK (not fully specified (N-terminus), Synthetic 20-mer homologous to the FR3 or FR4 region of the heavy chain; The label differs between experiments; also called H2 switching peptide; fourth peptide compound H2) [H2 peptide]", 5.51),
]

Okay, now this binder:
Req: What does the data say about its pKd? Entry: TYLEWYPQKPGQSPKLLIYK (not fully specified (N-terminus), Synthetic 20-mer homologous to the FR2 region of the light chain; The label differs between experiments; also called L1 switching peptide; first peptide compound L1) [L1 peptide]
Resp: 5.48
